From: PubChem BioAssay AID1159580

# experiment.description: chemical genetic growth profiling, strain panel (AID 1159580);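 note: tested at 20 µM; growth read once vehicle control cultures reached saturation at 30 °C; 1 = growth at the plate median or of vehicle wells; lower values mean less growth of the strain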
# settings: S. cerevisiae deletion strains, growth OD, locus YLL001W, strain dnm1, hits give low values
In all, about 5,500 compounds went through this assay and about 2,000 (36%) were called active. Not shown: some 18% with an inconclusive outcome. The list shows a part of the results.
property: normalized growth
Please respond with just the number, no unit label.

molecule="O=C(O)CCCCC1SCC2NC(=O)NC21 (configuration not stated)" property="normalized growth" measured=0.989
molecule="Nc1nc2c(c(=O)[nH]1)N(C=O)C(CNc1ccc(C(=O)N[C@@H](CCC(=O)O)C(=O)O)cc1)CN2 (some centres not stated)" property="normalized growth" measured=0.926

### Prompt Need normalized growth, item N[C@@H](CCC(=O)N[C@@H](CCSC(CC(=O)O)C(=O)O)C(=O)NCC(=O)O)C(=O)O (some centres not stated)
### Response 1.01

### Prompt // query: CCn1cc(C(=O)O)c(=O)c2ccc(C)nc21
### Response 0.946

### Prompt Moving on to C=CCN1CC[C@]23c4c5ccc(O)c4OC2C(=O)CC[C@@]3(O)[C@H]1C5 (some centres not stated)
### Response 0.983

### Prompt Please do the same for O=C(O)P(=O)(O)O as well.
### Response 0.991

### Prompt // query: CC1(C)C2CC(=O)O[C@@]3(C)C4=CC(=O)O[C@@H](c5ccoc5)[C@]4(C)CCC3[C@@]2(C)C=C[C@H]1O (some centres not stated)
### Response 1

### Prompt Then CCn1cc(C(=O)O)c(=O)c2cnc(N3CCNCC3)nc21 ?
### Response 1.01

### Prompt Same again, this time with CCN(CC)CCOC(=O)C(Cc1cccc2ccccc12)CC1CCCO1 (configuration not stated)
### Response 0.999

### Prompt Same question, O=C(NC(Cc1cc(=O)[nH]c2ccccc12)C(=O)O)c1ccc(Cl)cc1 (configuration not stated) this time
### Response 0.997

### Prompt Note, next up: CCOC(=O)CCCCCCCCCCCCC1C=CCC1 (configuration not stated)
### Response 1

### Prompt Queued: NCCCCN=C(N)N
### Response 1.01

* * *

# key: entry, value: normalized growth
# experiment.description: chemical genetic growth profiling, strain panel (AID 1159580)
# settings: S. cerevisiae deletion strains, growth OD, locus YEL061C, strain CIN8, hits give low values
Hit rate of the full screen: of about 5,500 compounds, about 2,000 (36%) were called active. Roughly 18% stayed inconclusive and do not appear here. Some of the results follow.
// return a plain number; no unit text

Known normalized growth results, listed for orientation:
compound=COc1ccc(/C=C/c2cc(O)cc(O)c2)cc1 measured=0.864
compound=O=S(=O)(c1cc(Br)c(Br)s1)N1CCCCC1 measured=1.01
compound=COc1ccc(/C=C/c2cc(O)cc(O[C@@H]3O[C@H](CO)[C@@H](O)[C@H](O)[C@H]3O)c2)cc1O measured=1
compound="NC(=O)c1cc[n+](CC2=C(C(=O)O)N3C(=O)C(NC(=O)C(c4ccccc4)S(=O)(=O)[O-])C3SC2)cc1 (stereo not drawn)" measured=0.994
compound=O=C(O)CCNC(=S)Nc1cccc(C(F)(F)F)c1 measured=1.02
compound=Cc1cccc2nc(-c3ccccc3)oc(=O)c12 measured=0.936

### Prompt Please give the measured normalized growth for this compound: O=C(CCN1CCOCC1)c1ccc2c(c1)OCCO2
### Response 0.694

### Prompt Same again, this time with COc1ccc(OC)c(S(=O)(=O)NCc2c(F)cccc2Cl)c1
### Response 1.04

### Prompt What do you get for NC(=O)CCSCCC(N)=O ?
### Response 1.01

* * *

# experiment.description: chemical genetic growth profiling, strain panel (AID 1159580)
# settings: S. cerevisiae deletion strains, growth OD, locus YPL051W, strain arl3, hits give low values
Out of some 5,500 compounds screened, about 2,000 (36%) were called active. Inconclusive results (about 18%) are left out. This is one part of the list.
property: normalized growth
Provide a numeric answer; units are not to be included.

Before answering, review these 5 worked examples.
compound=NCc1ccc(S(N)(=O)=O)cc1 measured=1.03
compound=S=c1[nH]c2ccccc2s1 measured=0.904
compound=O=C(O)c1cc(=O)c(O)c2c(O)c(O)c(O)cc2c1 measured=0.465
compound=COc1ccc(-c2cc(C(F)F)nn2-c2ccc(S(N)(=O)=O)cc2)cc1F measured=0.991
compound=O=C(O)c1ccc2c(c1)OCO2 measured=1.01

// next entry
### Prompt Name the recorded normalized growth for NC(=O)c1cc[n+](CC2=C(C(=O)O)N3C(=O)C(NC(=O)C(c4ccccc4)S(=O)(=O)[O-])C3SC2)cc1 (configuration not stated) .
### Response 0.987

* * *

# experiment.description: chemical genetic growth profiling, strain panel (AID 1159580)
# settings: S. cerevisiae deletion strains, growth OD, locus YLR113W, strain HOG1, hits give low values
About 2,000 (36%) of roughly 5,500 compounds were called active. About 18% were inconclusive and are not listed. This is one part of the list.
// boundary case: normalized growth equal to 1 maps to Not fulfilled; strictly smaller maps to Fulfilled

molecule=CC(C)(O)C#Cc1ccc(/C=N\Nc2ccccc2)cc1 cat=Fulfilled

### Prompt Input c1ccc(-c2ccc(C(c3ccccc3)n3ccnc3)cc2)cc1 (stereo not given) ; condition: normalized growth strictly below 1. Does it hold?
### Response Fulfilled

* * *

Documented normalized growth across a set of compounds
# experiment.description: chemical genetic growth profiling, strain panel (AID 1159580);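 note: tested at 20 µM; growth read once vehicle control cultures reached saturation at 30 °C; 1 = growth at the plate median or of vehicle wells; lower values mean less growth of the strain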
# settings: S. cerevisiae deletion strains, growth OD, locus YJR066W, strain TOR1, hits give low values
The whole screen tested about 5,500 compounds, of which about 2,000 (36%) were called active. Not shown: some 18% with an inconclusive outcome. This is one part of the list.
// return a plain number; no unit text

Study these solved cases before continuing.
structure_smiles=O=C1N=C(O)CN1/N=C\c1ccc(-c2ccc([N+](=O)[O-])cc2)o1 measured=0.944
structure_smiles=CCn1cc(C(=O)O)c(=O)c2cc3c(cc21)OCO3 measured=0.991
structure_smiles=NC(=O)N/N=C\c1ccc([N+](=O)[O-])o1 measured=0.911
structure_smiles=CCn1cc(C(=O)O)c(=O)c2cnc(N3CCCC3)nc21 measured=0.982
structure_smiles=O=C1CN(/N=C\c2ccc([N+](=O)[O-])o2)C(=O)N1 measured=0.87

Turning now to a further record.
### Prompt Entry CCn1cc(C(=O)O)c(=O)c2ccc(C)nc21 has what normalized growth?
### Response 0.899

* * *

# experiment.description: chemical genetic growth profiling, strain panel (AID 1159580);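 note: tested at 20 µM; growth read once vehicle control cultures reached saturation at 30 °C; 1 = growth at the plate median or of vehicle wells; lower values mean less growth of the strain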
# settings: S. cerevisiae deletion strains, growth OD, locus YIR030C, strain dcg1
Among all 5,500 compounds or so, about 2,000 (36%) were called active. Another 18% or so got no clear call; they are omitted. Rule as the data show it: active = normalized growth mostly below about 0.91 (no sharp cut-off); inconclusive = no clear call, values can overlap the other calls; inactive = mostly above about 0.92. The list shows a part of the results.
Pick one: active, inactive

See these solved cases before continuing.
compound="CC(=O)O[C@H]1CC[C@@]2(C)C(=CCC3C2CC[C@]2(C)C(=O)CCC32)C1 (stereo not given in full)" cat=inactive
compound=O=c1cccc2n1C[C@H]1CNCC2C1 cat=inactive
compound="CCOC(=O)CCCCCCCCCCCCC1C=CCC1 (stereo not given)" cat=active
compound=CC1=C(/C=C/C(C)=C/C=C/C(C)=C/C=C/C=C(C)/C=C/C=C(C)/C=C/C2=C(C)CCCC2(C)C)C(C)(C)CCC1 cat=inactive
compound=O=C(O)P(=O)(O)O cat=inactive

### Prompt # outcome recorded in this test, key = CC1=C(/C=C/C(C)=C/C=C/C(C)=C/CO)C(C)(C)CCC1
### Response inactive

### Prompt Another compound: C[C@@H]1CC2C3CCC4=CC(=O)C=C[C@]4(C)[C@@]3(F)[C@@H](O)C[C@]2(C)[C@@]1(O)C(=O)COP(=O)(O)O (stereo not given in full)
### Response inactive

### Prompt Quick one: CC1=C(/C=C/C(C)=C/C=C/C(C)=C\C(=O)O)C(C)(C)CCC1
### Response inactive

### Prompt Also need CCC(CCC(C)C1CCC2C3CC=C4C[C@@H](OC(C)=O)CC[C@]4(C)C3CC[C@]12C)C(C)C (stereo not given in full) , thanks.
### Response inactive

### Prompt Query CC12CCC3C(CC=C4CC(O)CCC43C)C1CCC2=O (stereo not given) next
### Response inactive

* * *

Below, each of the compounds is paired with its reported normalized growth value.
# experiment.description: chemical genetic growth profiling, strain panel (AID 1159580);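 note: tested at 20 µM; growth read once vehicle control cultures reached saturation at 30 °C; 1 = growth at the plate median or of vehicle wells; lower values mean less growth of the strain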
# settings: S. cerevisiae deletion strains, growth OD, locus YPL209C, strain IPL1, hits give low values
Screen size: about 5,500 compounds; about 2,000 (36%) were called active. Roughly 18% stayed inconclusive and do not appear here. The list shows a part of the results.
Just the number, please, no unit attached.

compound=COc1ccccc1NC(=O)Nc1nn(C)c2cccc(OC)c12 measured=0.943
compound=COc1cc(C(=O)Oc2c(Cl)cc(Cl)cc2C=Nc2cccc([N+](=O)[O-])c2)cc(OC)c1OC measured=0.978
compound="COc1ccccc1C(C[N+](=O)[O-])c1c(N)n(C)c(=O)n(C)c1=O (centres undefined)" measured=0.95

### Prompt I am curious: what normalized growth value has been reported for COCCOc1ccccc1NC(=S)SCCSC(=S)Nc1ccccc1OCCOC ?
### Response 0.978
